Each recorded value in this set is attributed to paper PMC9482650.

Please go through the items and note down their pKd.
- Target Entity: MAGI2_6, Q86UL8
- Sequence (Q86UL8 1141-1229): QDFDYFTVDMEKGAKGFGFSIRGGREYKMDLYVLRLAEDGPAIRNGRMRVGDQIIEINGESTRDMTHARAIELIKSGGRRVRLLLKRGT
- Assay: holdup assay
- Set-up: key: below the threshold = too weak to quantify, mostly under pKd 3.1 to 4
- Measurement Setup: plain residues with an end cap or a label only (N-terminal biotin on a linker: ahx)
Answers are plain numbers.

                      binder  quantity_name  recorded_measurement
0  GYDWGPATDL [TJP3, O95049]            pKd                  5.24

Consider the record given below.
input: Tell me the measured pKd of NRKREIFSNF [NHERF2, Q15599] , please.
output: 3.55
